Record form. Attribute: human MASP1 IC50. Fill in for each entry.
Target: T1, Recombinant human MASP1 enzyme (fragment corresponding to amino acids 297-699, C-terminal His Tag) (human, UniProt P48740 297-699)
T1 sequence: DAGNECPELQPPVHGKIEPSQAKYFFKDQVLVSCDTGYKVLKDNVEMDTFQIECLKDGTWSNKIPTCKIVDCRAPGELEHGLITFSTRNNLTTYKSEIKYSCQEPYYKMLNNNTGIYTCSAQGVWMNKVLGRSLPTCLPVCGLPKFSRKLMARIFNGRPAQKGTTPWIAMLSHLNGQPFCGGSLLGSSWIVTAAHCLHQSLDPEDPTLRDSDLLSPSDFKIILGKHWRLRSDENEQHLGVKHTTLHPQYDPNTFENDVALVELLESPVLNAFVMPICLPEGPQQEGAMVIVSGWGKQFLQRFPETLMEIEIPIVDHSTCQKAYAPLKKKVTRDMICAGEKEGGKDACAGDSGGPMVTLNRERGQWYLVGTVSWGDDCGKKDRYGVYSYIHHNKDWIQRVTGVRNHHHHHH
Test: cell-based or functional assay
Bridge positions count the residues as written; N and C are the ends. Square brackets hold non-standard residues; d marks the D form. Ends that are not written are not given here. tBuAla = CC(C)(C)C[C@H](N)C(=O)O; Chg = N[C@H](C(=O)O)C1CCCCC1; Pen = CC(C)(S)[C@H](N)C(=O)O; NMeC = CN[C@@H](CS)C(=O)O; Ac4c = NC1(C(=O)O)CCC1; Dap = NC[C@H](N)C(=O)O
Express your answer in nM, writing the number without its unit.

Please report the recorded human MASP1 IC50 for AICSRSLPP[Chg]CI-NH2 (disulfide 3-11; N-terminus assumed; SMILES CC[C@H](C)[C@H](NC(=O)[C@@H]1CSSC[C@H](NC(=O)[C@@H](NC(=O)[C@H](C)N)[C@@H](C)CC)C(=O)N[C@@H](CO)C(=O)N[C@@H](CCCNC(=N)N)C(=O)N[C@@H](CO)C(=O)N[C@@H](CC(C)C)C(=O)N2CCC[C@H]2C(=O)N2CCC[C@H]2C(=O)N[C@@H](C2CCCCC2)C(=O)N1)C(N)=O) [AIC+SRSLPP-(Chg)-C+I-NH2] . 8.9

Please report the recorded human MASP1 IC50 for [Ac4c]ICSRS[tBuAla]PPI[Pen]I-NH2 (disulfide 3-11; N-terminus assumed; SMILES CC[C@H](C)[C@H](NC(=O)[C@H]1NC(=O)[C@H]([C@@H](C)CC)NC(=O)[C@@H]2CCCN2C(=O)[C@@H]2CCCN2C(=O)[C@H](CC(C)(C)C)NC(=O)[C@H](CO)NC(=O)[C@H](CCCNC(=N)N)NC(=O)[C@H](CO)NC(=O)[C@@H](NC(=O)[C@@H](NC(=O)C2(N)CCC2)[C@@H](C)CC)CSSC1(C)C)C(N)=O) [(ACBA)-IC+SRS-((tBu)A)-PPI-(Pen)+I-NH2] . 5.7

Please report the recorded human MASP1 IC50 for WICSRS[tBuAla]PPI[NMeC]I-NH2 (disulfide 3-11; N-terminus assumed; SMILES CC[C@H](C)[C@H](NC(=O)[C@@H]1CSSC[C@H](NC(=O)[C@@H](NC(=O)[C@@H](N)Cc2c[nH]c3ccccc23)[C@@H](C)CC)C(=O)N[C@@H](CO)C(=O)N[C@@H](CCCNC(=N)N)C(=O)N[C@@H](CO)C(=O)N[C@@H](CC(C)(C)C)C(=O)N2CCC[C@H]2C(=O)N2CCC[C@H]2C(=O)N[C@@H]([C@@H](C)CC)C(=O)N1C)C(N)=O) [WIC+SRS-((tBu)A)-PPI-((N-Me)C)+I-NH2] . 6.6

Please report the recorded human MASP1 IC50 for [Dap]ICSRS[tBuAla]PPI[Pen]I-NH2 (disulfide 3-11; N-terminus assumed; SMILES CC[C@H](C)[C@H](NC(=O)[C@H]1NC(=O)[C@H]([C@@H](C)CC)NC(=O)[C@@H]2CCCN2C(=O)[C@@H]2CCCN2C(=O)[C@H](CC(C)(C)C)NC(=O)[C@H](CO)NC(=O)[C@H](CCCNC(=N)N)NC(=O)[C@H](CO)NC(=O)[C@@H](NC(=O)[C@@H](NC(=O)[C@@H](N)CN)[C@@H](C)CC)CSSC1(C)C)C(N)=O) [(Dap)-IC+SRS-((tBu)A)-PPI-(Pen)+I-NH2] . 5.1
